Test system: recombinant human CFTR carrying the premature stop codon (PTC) mutation G542X
Assay: CFTR-PTC mutant translation readthrough, Nanoluc tagged CFTR luminescence (G542X cell line)
Type: cell-based
Conditions: fold over 10 μM G-418; in combination with G418; G542X cell line
property-measured: CFTR G542X ACTIVITY Fold 10 μM G-418

[[record]]
compound = "Cc1cccc(C(F)(F)F)c1COc1cnc(N2CC[C@@H](C(N)=O)C2)nc1"
property_measured = "CFTR G542X ACTIVITY Fold 10 μM G-418"
value = "A′ (A′ = ≥10X)"

[[record]]
compound = "Cc1cccc(C(F)(F)F)c1COc1ccc(-n2cnc(CO)n2)nc1"
property_measured = "CFTR G542X ACTIVITY Fold 10 μM G-418"
value = "A′ (A′ = ≥10X)"

[[record]]
compound = "CN1CCN(c2ncc(OCc3c(Cl)cccc3Cl)cn2)CC1=O"
property_measured = "CFTR G542X ACTIVITY Fold 10 μM G-418"
value = "A′ (A′ = ≥10X)"

[[record]]
compound = "O=C1OC(CO)CN1c1ccc(OCc2c(Cl)cccc2C(F)(F)F)cn1 (centres unmarked)"
property_measured = "CFTR G542X ACTIVITY Fold 10 μM G-418"
value = "A′ (A′ = ≥10X)"

[[record]]
compound = "OCCC1CCN(c2ncc(OCc3c(Cl)cccc3Cl)cn2)CC1"
property_measured = "CFTR G542X ACTIVITY Fold 10 μM G-418"
value = "A′ (A′ = ≥10X)"

[[record]]
compound = "Cc1cccc(C(F)(F)F)c1COc1cnc(N2CCO[C@H](CO)C2)nc1"
property_measured = "CFTR G542X ACTIVITY Fold 10 μM G-418"
value = "A′ (A′ = ≥10X)"

[[record]]
compound = "O=c1[nH]ncc2cc(OCc3c(Cl)cccc3Cl)ccc12"
property_measured = "CFTR G542X ACTIVITY Fold 10 μM G-418"
value = "B′ (B′ = ≥5X to <10X)"

[[record]]
compound = "OC[C@@H]1CN(c2ncc(OCc3c(Cl)cccc3Cl)cn2)CCO1"
property_measured = "CFTR G542X ACTIVITY Fold 10 μM G-418"
value = "A′ (A′ = ≥10X)"

[[record]]
compound = "Cc1cccc(C(F)(F)F)c1COc1cnc(N2CCC(CO)C2)nc1 (centres unmarked)"
property_measured = "CFTR G542X ACTIVITY Fold 10 μM G-418"
value = "A′ (A′ = ≥10X)"

[[record]]
compound = "C=C1NC(=O)N(c2ccc(OCc3c(Cl)cccc3Cl)cn2)C1=O"
property_measured = "CFTR G542X ACTIVITY Fold 10 μM G-418"
value = "B′ (B′ = ≥5X to <10X)"

